Across several publications, the following pKi results were reported for UniProt P49841.
pKi: −log10 of the molar value.
Observable: pKi

INSERT INTO measurements (chemical_string, meas_value) VALUES
  ('COCc1cc(Nc2cc(C)[nH]n2)nc(Nc2nc3ccccc3[nH]2)n1', '5.15 to 6.00'),
  ('CCCn1c(-c2nonc2N)nc2ccccc21', '> 6.00'),
  ('N#Cc1ccc(NCCNc2nc(-c3ccccc3O)nc3ccccc23)nc1', '> 7.00');

* * *

Across several publications, the following pKi results were reported for Glycogen synthase kinase-3 beta (Homo sapiens, UniProt P49841).
pKi: −log10 of the molar value.
Observable: pKi

INSERT INTO measurements (chemical_string, subject_of_test, meas_value) VALUES
  ('Fc1ccc2[nH]nc(Nc3nc(-c4ccccc4C(F)(F)F)nc4c3CCCCC4)c2c1', 'Glycogen synthase kinase-3 beta (Homo sapiens, UniProt P49841)', '> 7.00'),
  ('N#CCc1ccc(Nc2nc(Nc3n[nH]c4ccccc34)c3ccccc3n2)cc1', 'Glycogen synthase kinase-3 beta (Homo sapiens, UniProt P49841)', '> 7.00'),
  ('CCOc1cccc(-c2cccc(Nc3nccc(-c4nccs4)n3)c2)c1', 'Glycogen synthase kinase-3 beta (Homo sapiens, UniProt P49841)', '> 7.00'),
  ('CCN(CCO)c1cc(-n2cnc(Nc3ccccc3)n2)ccn1', 'Glycogen synthase kinase-3 beta (Homo sapiens, UniProt P49841)', '> 6.30'),
  ('Cc1cc(Nc2cc(-c3ccccc3)[nH]n2)nc(Nc2nc3ccccc3[nH]2)n1', 'Glycogen synthase kinase-3 beta (Homo sapiens, UniProt P49841)', '5.15 to 6.00');

* * *

Across several publications, the following Ki results were reported for UniProtKB P49841.
Observable: Ki

INSERT INTO results (molecule, meas_value) VALUES
  ('Cc1ccc(C)c(-c2cccc(Nc3nccc(-c4nccs4)n3)c2)c1', '< 100 nM'),
  ('Clc1ccccc1Nc1nc(Nc2n[nH]c3ccccc23)c2ccccc2n1', '100 to 1000 nM'),
  ('Cc1cc(Nc2nc(-c3ccccc3Cl)nc3ccccc23)n[nH]1', '< 100 nM'),
  ('CN1CCN(c2ccc(Nc3ncn(-c4ccccc4)n3)cn2)CC1', '> 1000 nM'),
  ('N#Cc1cccc(COc2cccc(Nc3nccc(-c4nccs4)n3)c2)c1', '< 100 nM'),
  ('Cc1cc(Nc2n[nH]c3ccccc23)nc(-c2ccccc2C(F)(F)F)n1', '< 100 nM'),
  ('CC1CCCN1c1cc(-n2cnc(Nc3ccccc3)n2)ccn1 (stereo not drawn)', '< 500 nM'),
  ('CN1CCN(C(=O)c2cc(Nc3nc(-c4ccccc4)nc4ccccc34)[nH]n2)CC1', '1000 to 20000 nM'),
  ('Cc1cc(Nc2nc(N3CCNCC3)nc3ccccc23)[nH]n1', '100 to 1000 nM'),
  ('c1ccc(COCCCc2cc(Nc3nc(-c4ccccc4)nc4ccccc34)[nH]n2)cc1', '100 to 1000 nM'),
  ('Fc1cc(F)c2n[nH]c(Nc3nc(-c4ccccc4)nc4c3CCCC4)c2c1', '< 100 nM'),
  ('CCC(=O)Nc1ccc(Sc2nc(Nc3cc(C4CC4)[nH]n3)cc(-c3ccccc3)n2)cc1', '100 to 1000 nM'),
  ('Cc1cc(Nc2cc(-c3ccco3)n[nH]2)nc(-c2ccccc2OC(F)(F)F)n1', '100 to 1000 nM'),
  ('OCc1cnc2[nH]cc(-c3oncc3-c3cccc(F)c3F)c2c1', '1000 to 12500 nM'),
  ('COc1cc(Nc2ncn(-c3ccccc3)n2)cc(OC)c1OC', '> 1000 nM'),
  ('Cc1cc(Nc2nc(-c3ccc(F)cc3F)nc3ccccc23)n[nH]1', '< 100 nM'),
  ('Cc1cccc(Sc2nc(Nc3cc(C4CC4)[nH]n3)c3ccccc3n2)c1', '< 100 nM'),
  ('Ic1cccc(Nc2nccc(-c3nccs3)n2)c1', '< 100 nM'),
  ('COc1ccc(-c2cc(Nc3cc(C)[nH]n3)nc(Sc3ccc(NC(C)=O)cc3)n2)cc1', '100 to 1000 nM'),
  ('COC(=O)c1cnc2[nH]cc(-c3oncc3-c3cccc(F)c3F)c2c1', '200 to 1000 nM'),
  ('c1ccc(-n2cnc(Nc3ccc(N4CCOCC4)nc3)n2)cc1', '> 1000 nM'),
  ('FC(F)(F)c1ccccc1-c1nc(Nc2n[nH]c3ccccc23)cc(-c2ccccc2Cl)n1', '< 100 nM'),
  ('FC(F)(F)c1ccccc1-c1nc2c(c(Nc3n[nH]c4ccccc34)n1)CCC2', '< 100 nM'),
  ('COC(=O)c1cc(Nc2ccnc(N3CCCCC3)n2)n[nH]1', '100 to 1000 nM');
